I'd appreciate it if you could supply pKi values for the items below.
# experimentalSystem: Sigma non-opioid intracellular receptor 1 (Cavia porcellus, UniProt Q60492)
# Sequence (Q60492 whole entry): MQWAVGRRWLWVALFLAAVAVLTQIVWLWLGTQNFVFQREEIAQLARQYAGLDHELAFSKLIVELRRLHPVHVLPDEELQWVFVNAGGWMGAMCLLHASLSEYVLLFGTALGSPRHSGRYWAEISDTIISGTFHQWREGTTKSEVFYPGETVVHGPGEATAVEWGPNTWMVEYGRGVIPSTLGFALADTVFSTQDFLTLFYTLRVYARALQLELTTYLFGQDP
# protocolNotes: Displacement of [3H]-(+)-pentazocine from sigma-1 receptor in guinea pig brain homogenates
Interpret pKi as the negative base-10 log of the concentration measured in mol/L.

Q: Supply reported pKi belonging to this compound: C[C@]1(c2ccccc2)OCC[C@H](CCNCc2ccccc2)O1
Ans: 7.96

Q: State, in one line, measured pKi of c1ccc(CNCC[C@@H]2CCO[C@H](c3ccccc3)O2)cc1
Ans: 8.22

====

# experimentalSystem: Sigma non-opioid intracellular receptor 1 (Cavia porcellus, UniProt Q60492)
# protocolNotes: Displacement of [3H]-(+)-pentazocine from sigma-1 receptor in guinea pig brain homogenates
Cut-off 100 nM on Ki: below means y, at or above means n.

Q: State whether 100 nM exceeds Ki recorded for c1ccc(CNCC[C@H]2CCO[C@@H](c3ccccc3)O2)cc1 .
Ans: y

Q: Dear reviewer, please state whether CCC[C@]1(c2ccccc2)OCC[C@H](CCN)O1 has Ki strictly beneath 100 nM.
Ans: n

Q: Does CC[C@@]1(c2ccccc2)OCC[C@@H](CCNCc2ccccc2)O1 have Ki strictly under 100 nM?
Ans: y

Q: Threshold test, Ki < 100 nM: CC[C@@]1(c2ccccc2)OCC[C@@H](CCN)O1
Ans: n

Q: Could you please tell me whether Ki recorded for CC(C)(C)[C@]1(c2ccccc2)OCC[C@H](CCNCc2ccccc2)O1 is less than 100 nM?
Ans: n

Q: Below 100 nM on Ki? Entry CCC1(c2ccccc2)OCCC(CCN)O1 (racemic)
Ans: n

Q: Below 100 nM on Ki? Entry CC(C)(C)[C@@]1(c2ccccc2)OCC[C@@H](CCNCc2ccccc2)O1
Ans: n

Q: Determine whether this compound shows Ki lower than 100 nM (ties excluded): CC[C@]1(c2ccccc2)OCC[C@H](CCN)O1
Ans: n

Q: Does this compound meet the criterion Ki < 100 nM? CC(C)(C)[C@]1(c2ccccc2)OCC[C@H](CCN)O1
Ans: n

Q: Strictly below 100 nM: is that where Ki of CC(C)(C)[C@@]1(c2ccccc2)OCC[C@@H](CCN)O1 sits?
Ans: n

Q: # check: Ki < 100 nM for CCC[C@]1(c2ccccc2)OCC[C@H](CCNCc2ccccc2)O1
Ans: n

Q: hey, is Ki for NCCC1CCOC(c2ccccc2)O1 (racemic) lower than 100 nM or not?
Ans: n

====

# experimentalSystem: Sigma non-opioid intracellular receptor 1 (Cavia porcellus)
# protocolNotes: Displacement of [3H]-(+)-pentazocine from sigma-1 receptor in guinea pig brain homogenates
Record form. Attribute: Ki. Fill in for each entry.

Q: Write down Ki measured for item CCC[C@@]1(c2ccccc2)OCC[C@@H](CCN)O1
Ans: > 10000 nM

Q: Look up Ki of CC[C@]1(c2ccccc2)OCC[C@H](CCNCc2ccccc2)O1 and report it.
Ans: 28 nM

Q: Please supply the value of reported Ki for the item NCC[C@H]1CCO[C@@H](c2ccccc2)O1
Ans: > 10000 nM

Q: Fill in Ki for record NCC[C@@H]1CCO[C@H](c2ccccc2)O1
Ans: > 10000 nM

Q: Identify the reported Ki for the following entry. C[C@@]1(c2ccccc2)OCC[C@@H](CCNCc2ccccc2)O1
Ans: 17 nM

Q: Output measured Ki for this item: CCC[C@@]1(c2ccccc2)OCC[C@@H](CCNCc2ccccc2)O1
Ans: 72 nM

Hey, just so you know, these numbers are from ChEMBL document CHEMBL2169843.
